# test protocol: High Throughput Screening for Foot and Mouth Disease Virus Antivirals; further: nearly all actives have a fitted effect of over 45% in size; further: potency means the concentration at half of the fitted maximal effect
# details: FMDV antiviral cell-based qHTS; series mostly up to 57.9 µM
The whole screen tested about 410,000 compounds, of which about 5,100 (1.2%) were called active. Another 8% or so got no clear call; they are omitted. The list comes from a sample in which actives are over-represented; it also holds close analogues and randomly drawn compounds.
quantity kind: Potency

Some solved entries appear below for comparison.
{"compound": "Cc1ccc(/C(=C/CN2CCCC2)c2ccccn2)cc1", "Potency": "inactive"}
{"compound": "Cc1nc(/N=C(\\N)NC(=O)NC2CCCCC2)nc2ccccc12", "Potency": "31.6 µM (active)"}
{"compound": "CCCCN1CC(c2nc3ccccc3n2CCCCOc2ccc(C)cc2C)CC1=O (stereo unspecified)", "Potency": "39.8 µM (active)"}
{"compound": "O=C(c1cccc(F)c1)N1CCC2(CC1)CCN(c1ccccc1)CC2", "Potency": "inactive"}
{"compound": "CCC(C)(C)c1ccc(OCC(=O)N(C)C)c(C(C)(C)CC)c1", "Potency": "31.6 µM (active)"}

Next compound, please.
Exercise: Quick check: Potency of "O=C(Nc1ccccc1C(=O)N1CCOCC1)c1ccc(CSc2ccccc2)cc1" ?
Key: inactive
